# testTarget: BRD4 domain 2 (Homo sapiens)
# testProtocol: Kd determination of inhibitors binding to BRD4 domain 2 (Epic label-free platform)
# testParameters: direct binding to immobilized BRD4 domain 2; tripling dilution series from 20µM; about 1hr equilibrium; rounded to whole number
measuredEndpoint: Kd (µM)

>>> numericresult("Cc1noc(C)c1-c1cc(S(=O)(=O)NC2CCCC2)c2cc(NC(C)C)c(=O)[nH]c2c1 [Compound 77]")
0.61
>>> numericresult("Cc1noc(C)c1-c1cc(S(=O)(=O)NC2CCCC2)c2cc(C(=O)N(C)C)c(=O)[nH]c2c1 [Compound 75]")
8.94
>>> numericresult("Cc1noc(C)c1-c1cc(S(=O)(=O)N[C@@H]2CCC[C@@H]2C(=O)NCc2nccn2C)c2cccnc2c1 [Compound 43]")
10.7
>>> numericresult("CC(=O)N[C@H]1CCC[C@H]1NS(=O)(=O)c1cc(-c2c(C)noc2C)cc2ncccc12 [Compound 51]")
6.45
>>> numericresult("Cc1noc(C)c1-c1cc(S(=O)(=O)NC2CCCC2)c2cc(C#N)c(=O)[nH]c2c1 [Compound 31]")
0.634
>>> numericresult("Cc1noc(C)c1-c1cc(S(=O)(=O)NC2CCCC2)c2cc(NCCN3CCOCC3)c(=O)[nH]c2c1 [Compound 90]")
0.56
>>> numericresult("Cc1noc(C)c1-c1cc(S(=O)(=O)NC2CCCC2)c2ncc(=O)[nH]c2c1 [Compound 87]")
1.34

###

# testTarget: BRD4 domain 1 (Homo sapiens, UniProt O60885)
# testProtocol: Kd determination of inhibitors binding to BRD4 domain 1 (Epic label-free platform)
# testParameters: direct binding to immobilized BRD4 domain 1; tripling dilution series from 20µM; about 1hr equilibrium; rounded to whole number; read-out: Epic Kd BRD41
Kd less than 2 µM is Criterion met; Kd greater than or equal to 2 µM is Criterion not met.

>>> labelvalue("Cc1noc(C)c1-c1cc(S(=O)(=O)NC2CCCC2)c2cc(NCCN)c(=O)[nH]c2c1 [Compound 78]")
"Criterion met"
>>> labelvalue("Cc1noc(C)c1-c1cc(S(=O)(=O)N[C@@H]2CCC[C@H]2O)c2ccc(=O)[nH]c2c1 [Compound 82]")
"Criterion met"
>>> labelvalue("Cc1noc(C)c1-c1cc(S(=O)(=O)NC2CCCC2)c2ccc(NCC3CC3)nc2c1 [Compound 5]")
"Criterion met"
>>> labelvalue("Cc1noc(C)c1-c1cc(S(=O)(=O)N(C)C2CC2)c2cccnc2c1 [Compound 9]")
"Criterion not met"
>>> labelvalue("COCCNc1cc2c(S(=O)(=O)NC3CCCC3)cc(-c3c(C)noc3C)cc2[nH]c1=O [Compound 58]")
"Criterion met"
>>> labelvalue("Cc1noc(C)c1-c1cc(S(=O)(=O)N[C@@H]2CCC[C@H](O)C2)c2cccnc2c1 [Compound 20]")
"Criterion not met"
>>> labelvalue("Cc1noc(C)c1-c1cc(S(=O)(=O)NC2CCCC2)c2ncc(=O)[nH]c2c1 [Compound 87]")
"Criterion not met"
>>> labelvalue("Cc1noc(C)c1-c1cc(S(=O)(=O)NC2CCCC2)c2cc(C(=O)O)c(=O)[nH]c2c1 [Compound 70]")
"Criterion not met"

###

# testTarget: BRD4 domain 2 (Homo sapiens)
# testProtocol: Kd determination of inhibitors binding to BRD4 domain 2 (Epic label-free platform)
# testParameters: direct binding to immobilized BRD4 domain 2; tripling dilution series from 20µM; about 1hr equilibrium; rounded to whole number
measuredEndpoint: Kd (nM)

>>> numericresult("Cc1noc(C)c1-c1cc(S(=O)(=O)NC2CC2(C)C)c2cccnc2c1 (stereo not drawn) [Compound 83]")
16600
>>> numericresult("COCCNc1cc2c(S(=O)(=O)N[C@@H]3CCC[C@H]3O)cc(-c3c(C)noc3C)cc2[nH]c1=O [Compound 85]")
429
>>> numericresult("Cc1noc(C)c1-c1cc(S(=O)(=O)NC2CCCC2)c2cc(NCCN)c(=O)[nH]c2c1 [Compound 78]")
392

###

# testTarget: BRD4 domain 1 (Homo sapiens)
# testProtocol: Kd determination of inhibitors binding to BRD4 domain 1 (Epic label-free platform)
# testParameters: direct binding to immobilized BRD4 domain 1; tripling dilution series from 20µM; about 1hr equilibrium; rounded to whole number; read-out: Epic Kd BRD41
measuredEndpoint: Kd (µM)

>>> numericresult("Cc1noc(C)c1-c1cc(S(=O)(=O)NCCN)c2cccnc2c1 [Compound 74]")
14.1
>>> numericresult("CC(=O)N[C@H]1CCC[C@H]1NS(=O)(=O)c1cc(-c2c(C)noc2C)cc2ncccc12 [Compound 51]")
7.62
>>> numericresult("Cc1noc(C)c1-c1cc(S(=O)(=O)NC2CCCC2)c2cc(-n3cccn3)c(=O)[nH]c2c1 [Compound 33]")
0.76
>>> numericresult("Cc1noc(C)c1-c1cc(S(=O)(=O)NC2CCCC2)c2cc(NCCN3CCOCC3)c(=O)[nH]c2c1 [Compound 90]")
0.652

###

# testTarget: BRD4 domain 2 (Homo sapiens, UniProt O60885)
# testProtocol: Kd determination of inhibitors binding to BRD4 domain 2 (Epic label-free platform)
# testParameters: direct binding to immobilized BRD4 domain 2; tripling dilution series from 20µM; about 1hr equilibrium; rounded to whole number
Kd values for the compounds below.
measuredEndpoint: Kd (µM)

>>> numericresult("Cc1noc(C)c1-c1cc(S(=O)(=O)N[C@@H]2CCC[C@H]2N)c2cccnc2c1 (stereo in doubt) [Compound 46]")
7.83
>>> numericresult("Cc1noc(C)c1-c1cc(S(=O)(=O)N[C@H]2C[C@@H](N)C2)c2cccnc2c1 [Compound 34]")
11.1
>>> numericresult("Cc1noc(C)c1-c1cc(S(=O)(=O)NC2CCCC2)c2cc(NCCCN)c(=O)[nH]c2c1 [Compound 94]")
0.569
>>> numericresult("Cc1noc(C)c1-c1cc(S(=O)(=O)N[C@@H]2CCC[C@H]2C(=O)N2CCNCC2)c2cccnc2c1 [Compound 47]")
2.27

###

# testTarget: BRD4 domain 2 (Homo sapiens, UniProt O60885)
# testProtocol: Kd determination of inhibitors binding to BRD4 domain 2 (Epic label-free platform)
# testParameters: direct binding to immobilized BRD4 domain 2; tripling dilution series from 20µM; about 1hr equilibrium; rounded to whole number
pKd: −log10 of the molar value.
measuredEndpoint: pKd

>>> numericresult("Cc1noc(C)c1-c1cc(S(=O)(=O)N(C)C2CC2)c2cccnc2c1")
4.90
>>> numericresult("Cc1noc(C)c1-c1cc(S(=O)(=O)NCC2CC2)c2cccnc2c1")
5.23
>>> numericresult("Cc1noc(C)c1-c1cc(S(=O)(=O)NC2CCCC2)c2cc(NCC(C)(C)O)c(=O)[nH]c2c1")
6.26
>>> numericresult("Cc1noc(C)c1-c1cc(S(=O)(=O)NC2CCCC2)c2cc(NCCCN(C)C)c(=O)[nH]c2c1")
6.30

###

# testTarget: BRD4 domain 1 (Homo sapiens)
# testProtocol: Kd determination of inhibitors binding to BRD4 domain 1 (Epic label-free platform)
# testParameters: direct binding to immobilized BRD4 domain 1; tripling dilution series from 20µM; about 1hr equilibrium; rounded to whole number; read-out: Epic Kd BRD41
measuredEndpoint: Kd (nM)

>>> numericresult("Cc1noc(C)c1-c1cc(S(=O)(=O)NC2CCCC2)c2ccc(C3CC3)nc2c1")
1440
>>> numericresult("Cc1noc(C)c1-c1cc(S(=O)(=O)NC2CCCC2)c2cc(N3CCNCC3)c(=O)[nH]c2c1")
933
>>> numericresult("Cc1noc(C)c1-c1cc(S(=O)(=O)NC2CCCC2)c2cc(NC(CO)CO)c(=O)[nH]c2c1")
897
>>> numericresult("Cc1noc(C)c1-c1cc(S(=O)(=O)N[C@H]2C[C@@H]3CC[C@H]2C3)c2cccnc2c1")
3140

###

# testTarget: BRD4 domain 2 (Homo sapiens)
# testProtocol: Kd determination of inhibitors binding to BRD4 domain 2 (Epic label-free platform)
# testParameters: direct binding to immobilized BRD4 domain 2; tripling dilution series from 20µM; about 1hr equilibrium; rounded to whole number
pKd: −log10 of the molar value.
pKd values for the compounds below.
measuredEndpoint: pKd

>>> numericresult("Cc1noc(C)c1-c1cc(S(=O)(=O)NC2CCC(C)(C)C2)c2cccnc2c1 (stereo not shown)")
4.87
>>> numericresult("Cc1noc(C)c1-c1cc(S(=O)(=O)NC2(C#N)CC2)c2cccnc2c1")
4.73
>>> numericresult("Cc1noc(C)c1-c1cc(S(=O)(=O)N[C@@H]2CCC[C@H]2O)c2cccnc2c1")
5.45

###

pKd values for the compounds below.
# testTarget: BRD4 domain 2 (Homo sapiens)
# testProtocol: Kd determination of inhibitors binding to BRD4 domain 2 (Epic label-free platform)
# testParameters: direct binding to immobilized BRD4 domain 2; tripling dilution series from 20µM; about 1hr equilibrium; rounded to whole number
pKd: −log10 of the molar value.
measuredEndpoint: pKd

>>> numericresult("Cc1noc(C)c1-c1cc(S(=O)(=O)N[C@H]2CC[C@@H](O)C2)c2cccnc2c1")
5.11
>>> numericresult("Cc1noc(C)c1-c1cc(S(=O)(=O)NC2CC2)c2cccnc2c1")
5.65
>>> numericresult("Cc1noc(C)c1-c1cc(S(=O)(=O)NC2(C#N)CCCC2)c2cccnc2c1")
4.93
>>> numericresult("Cc1noc(C)c1-c1cc(S(=O)(=O)NC2CCCC2)c2cc(-c3ccc(F)cc3)c(=O)[nH]c2c1")
6.26
